system: His-EGF(A)-Fc; assay: His-EGF(A)-Fc TR-FRET counterscreen; conditions: TR-FRET counterscreen; Table 8D; * = some inhibition at highest concentrations, not sufficient to fit an IC50
Bridge positions count the residues as written; N and C are the ends. Square brackets hold non-standard residues; d marks the D form. Peptide text beside a SMILES is read from it.
Listed below: IC50 values for each entry.

[
  {
    "Molecule": "CC[C@H](C)[C@@H]1NC(=O)[C@H](CCCNC(=N)N)NC(=O)[C@H](CCC(N)=O)NC(=O)[C@H](CC(C)C)NC(=O)[C@H](CC(N)=O)NC(=O)[C@H](Cc2c[nH]c3ccccc23)NC(=O)[C@@H]2CCCN2C(=O)[C@H](CC(C)C)NC(=O)[C@H](CCCNC(=N)N)NC(=O)[C@H](NC(C)=O)CSSC[C@@H](C(N)=O)NC(=O)[C@@H]2CCCN2C(=O)[C@H](CC(C)C)NC(=O)CNC1=O [Compound 110] (Ac-[dC]RLPWNLQRIGLPC-NH2; disulfide 1-14)",
    "Qualifier Sign": ">",
    "IC50, µM": 50
  },
  {
    "Molecule": "CC[C@H](C)[C@@H]1NC(=O)[C@H](CCCNC(=N)N)NC(=O)[C@H](CCCCN)NC(=O)[C@H](CC(C)C)NC(=O)[C@H](CC(N)=O)NC(=O)[C@H](Cc2c[nH]c3ccccc23)NC(=O)[C@H](CC(C)C)NC(=O)[C@@H](NC(=O)[C@@H](N)Cc2c[nH]c3ccccc23)CSSC[C@@H](C(=O)N[C@@H](Cc2c[nH]c3ccccc23)C(=O)N[C@@H](Cc2ccccc2)C(N)=O)NC(=O)[C@H](CCC(N)=O)NC(=O)[C@H](CO)NC(=O)CNC1=O [Compound 89] (H-WCLWNLKRIGSQCWF-NH2; disulfide 2-13)",
    "Qualifier Sign": "=",
    "IC50, µM": 38.4
  }
]
